- Protocol details: Half life in mouse at 1 mg/kg, iv
- Format: ADME, organism-based
- Set-up: dose 1 mg/kg, route intravenous
- Assay context: in vivo
Observable: half-life (h)

# Molecule, Observable, Measured
records = [
    ("CCOc1ccc(Cc2cc([C@@H]3OC(OC)[C@@H](O)[C@H](O)[C@H]3O)ccc2Cl)cc1 (mixture of isomers; 7a)", "half-life", 1.07),
]

---

- System: Sodium/glucose cotransporter 2 (Homo sapiens)
- Sequence (P31639 whole entry): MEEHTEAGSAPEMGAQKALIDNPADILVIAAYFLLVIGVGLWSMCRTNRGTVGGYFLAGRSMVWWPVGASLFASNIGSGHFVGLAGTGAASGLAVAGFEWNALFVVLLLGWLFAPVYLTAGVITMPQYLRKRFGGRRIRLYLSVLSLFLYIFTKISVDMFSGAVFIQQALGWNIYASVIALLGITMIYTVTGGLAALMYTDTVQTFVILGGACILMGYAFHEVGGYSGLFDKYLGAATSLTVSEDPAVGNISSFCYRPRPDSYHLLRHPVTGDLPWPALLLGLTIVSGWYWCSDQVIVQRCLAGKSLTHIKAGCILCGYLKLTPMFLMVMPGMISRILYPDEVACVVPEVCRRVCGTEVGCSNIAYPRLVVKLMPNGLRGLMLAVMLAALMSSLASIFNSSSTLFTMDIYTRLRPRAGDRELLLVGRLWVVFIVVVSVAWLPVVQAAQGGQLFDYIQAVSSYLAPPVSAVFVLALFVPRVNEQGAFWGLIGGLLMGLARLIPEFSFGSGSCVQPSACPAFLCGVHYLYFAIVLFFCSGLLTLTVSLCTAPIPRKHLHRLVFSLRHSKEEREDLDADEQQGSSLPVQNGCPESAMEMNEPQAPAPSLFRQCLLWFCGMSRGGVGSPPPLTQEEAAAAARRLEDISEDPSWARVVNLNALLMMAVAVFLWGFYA
- Protocol details: Inhibition of human SGLT2 expressed in HEK293 cells assessed as inhibition of [14C]alpha-methylglucopyranoside uptake
pIC50: −log10 of the molar value.
Short version: pIC50 at least 6 is T, less is F.

# Molecule, Class assignment
measured = [
    ("CCOc1ccc(-c2cccc([C@@H]3OC(OC)[C@@H](O)[C@H](O)[C@H]3O)c2)cc1 (mixture of isomers)", "F"),
    ("COC1O[C@@H](c2ccc(Cl)c(Cc3ccc(OCCO)cc3)c2)[C@H](O)[C@@H](O)[C@@H]1O (mixture of isomers)", "T"),
    ("CCOc1ccc(Cc2cc([C@@H]3OC(OC(C)C)[C@@H](O)[C@H](O)[C@H]3O)ccc2Cl)cc1 (mixture of isomers)", "T"),
    ("CCOc1ccc(Cc2cc([C@@H]3OC(OC)[C@@H](O)[C@H](O)[C@H]3O)ccc2Cl)cc1 (mixture of isomers; 7c)", "T"),
    ("CCOc1ccc(Cc2cc([C@@H]3OC(OC(C)C)[C@@H](O)[C@H](O)[C@H]3O)ccc2Cl)cc1 (stereo in doubt; 9b)", "T"),
    ("CCOc1ccc(Cc2cc([C@@H]3OC(OCc4ccccc4)[C@@H](O)[C@H](O)[C@H]3O)ccc2Cl)cc1 (mixture of isomers)", "T"),
]
